tested on: Methicillin Resistant Staphylococcus aureus strain USA 300 (NRS384); assay: MIC, broth micro-dilution technique (CLSI); assay type: cell-based; details: Staphylococcus aureus, 22 h, read-out: MIC (μg/mL) S. aureus
Could you please report measured MIC for the items listed next?
// note: answer is a bare numeric in µg/mL

Find MIC for CCOC(=O)CCC(=O)[C@H](C)NC(=O)[C@@H]1Cc2ccc(O)c(c2)-c2cc(ccc2O)[C@H](N(C)C(=O)[C@H](CCCCN)NC(=O)c2ccc(-c3ccc(Cl)cc3)cc2)C(=O)N[C@@H](C)C(=O)N1 on Methicillin Resistant Staphylococcus aureus strain USA 300 (NRS384) and write it down.
16

Please indicate recorded MIC of COC(=O)C(=O)[C@H](C)NC(=O)[C@@H]1Cc2ccc(O)c(c2)-c2cc(ccc2O)[C@H](N(C)C(=O)[C@H](CCCCN)NC(=O)c2ccc(-c3ccc(Cl)cc3)cc2)C(=O)N[C@@H](C)C(=O)N1 measured with Methicillin Resistant Staphylococcus aureus strain USA 300 (NRS384).
11
